System: total HDAC
assay-remarks: In vitro total HDAC activity (Fluor-de-Lys, HeLa nuclear extract)
Assay type: biochemical, human
applied-conditions: total HDAC activity, nuclear extract from HeLa cells, compound at 100 µM
reported-endpoint: %Inhibition at 100 µM

Nc1cc(C(=O)c2ccccc2O)cnc1-c1ccc2ccccc2c1	Inactive
Nc1cc(C(=O)c2ccccc2O)cnc1-c1ccccc1	Inactive
COc1cccc(O)c1C(=O)c1cc(C(=O)c2c(O)cccc2OC)cc([N+](=O)[O-])c1	Inactive
Nc1cc(C(=O)c2cc([N+](=O)[O-])ccc2O)cnc1-c1ccccc1 [drawing 28]	78%

Data point: O=C(c1cc(C(=O)c2ccccc2O)cc([N+](=O)[O-])c1)c1ccccc1O ; %Inhibition at 100 µM = Inactive

Data point: Nc1cc(C(=O)c2ccccc2O)cnc1-c1ccc([N+](=O)[O-])cc1 [drawing 30] ; %Inhibition at 100 µM = 67%

Data point: N#Cc1ccc(-c2ncc(C(=O)c3cc([N+](=O)[O-])ccc3O)cc2N)cc1 [drawing 29] ; %Inhibition at 100 µM = 82%

Data point: Cc1ccc(O)c(C(=O)c2cc(C(=O)c3cc(C)ccc3O)cc([N+](=O)[O-])c2)c1 ; %Inhibition at 100 µM = Inactive
